Here the recorded pEC50 is given for each entry.
# Target System: Muscarinic acetylcholine receptor M1 (Homo sapiens, UniProt P11229)
# Sequence (P11229 whole entry): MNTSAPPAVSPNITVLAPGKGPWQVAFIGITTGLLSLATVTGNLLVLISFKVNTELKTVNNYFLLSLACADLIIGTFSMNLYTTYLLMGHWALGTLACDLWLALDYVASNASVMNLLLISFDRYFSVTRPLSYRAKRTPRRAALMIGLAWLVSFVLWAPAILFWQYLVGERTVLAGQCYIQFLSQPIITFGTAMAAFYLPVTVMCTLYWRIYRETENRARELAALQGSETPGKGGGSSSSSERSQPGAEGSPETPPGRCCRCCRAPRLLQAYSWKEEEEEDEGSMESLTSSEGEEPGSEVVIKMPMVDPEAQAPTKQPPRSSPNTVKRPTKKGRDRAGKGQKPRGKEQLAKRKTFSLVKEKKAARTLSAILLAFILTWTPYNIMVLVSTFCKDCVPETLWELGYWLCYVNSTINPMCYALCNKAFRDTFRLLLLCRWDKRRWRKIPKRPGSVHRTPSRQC
# Assay Text: Agonist activity at muscarinic M1 receptor
Keep it numeric: pEC50 is minus log10 of the concentration in mol/L.

Cc1ccccc1CN1CCC(N2CCC(n3c(=O)[nH]c4cc(Cl)ccc43)CC2)CC1 : 5.99
O=c1[nH]c2cc(Cl)ccc2n1C1CCN(C2CCN(Cc3ccccc3C(F)(F)F)CC2)CC1 : 5.82

--- query ---
[Q] Returns the measured pEC50 for the input compound. Input: `O=c1[nH]c2cc(Cl)ccc2n1C1CCN(C2CCN(Cc3ccccc3[N+](=O)[O-])CC2)CC1`
[A] 5.96
